target: BRAF (Homo sapiens); construct: purchased Eurofins Genomics KK; (BRAF); Thermo Fisher Scientific Inc. (MEK1); assay: BRAF-inhibiting activity, time-resolved fluorescence-fluorescence resonance energy transfer assay; format: biochemical; settings: read-out: BRAF IC50; Table 3
Sequence (P15056 417-766 limits assumed): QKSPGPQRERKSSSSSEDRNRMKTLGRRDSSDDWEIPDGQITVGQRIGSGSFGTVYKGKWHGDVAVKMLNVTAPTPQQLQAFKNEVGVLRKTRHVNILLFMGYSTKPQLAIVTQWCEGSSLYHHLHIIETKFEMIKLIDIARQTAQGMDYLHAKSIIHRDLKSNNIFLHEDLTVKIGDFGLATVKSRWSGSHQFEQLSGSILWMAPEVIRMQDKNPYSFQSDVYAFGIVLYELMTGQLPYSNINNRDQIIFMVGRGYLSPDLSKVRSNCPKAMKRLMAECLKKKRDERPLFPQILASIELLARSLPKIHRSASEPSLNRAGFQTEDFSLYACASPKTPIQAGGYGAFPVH
Checkbox rule: IC50 lower than 7 nM = label 1; IC50 not lower than 7 nM = label 0.

- Item smiles: "CONC(=O)c1cc(Cc2ccnc(NS(=O)(=O)NC3(C)CCC3)c2F)c(F)c(F)c1Nc1ccc(I)cc1F"
  Label class: "label 1"
- Item smiles: "CCS(=O)(=O)Nc1cccc(Cc2cc(C(=O)NOC(C)(C)C)c(Nc3ccc(I)cc3F)c(F)c2F)c1F"
  Label class: "label 0"
- Item smiles: "NC(=O)c1cc(Cc2cccc(NS(=O)(=O)C3CCC3)c2F)c(F)c(F)c1Nc1ccc(I)cc1F"
  Label class: "label 0"
- Item smiles: "O=C(NC1CC1)c1cc(Cc2ccnc(NS(=O)(=O)NC3CC3)c2F)c(F)c(F)c1Nc1ccc(I)cc1Cl"
  Label class: "label 0"
- Item smiles: "CNS(=O)(=O)Nc1nccc(Cc2cc(C(=O)NOC)c(Nc3ccc(Br)cc3F)c(F)c2F)c1F"
  Label class: "label 1"
